experimentalSystem: recombinant DYRK1A kinase (Homo sapiens (Human))
runDescription: DYRK1A kinase assay (Ser/Thr 18 peptide Z-lyte FRET)
runConditions: 30 μM ATP, 1 h room temperature
endpoint: log10(EC50) (log10 of the value in nM)

givenSmiles: Cc1nnc(-c2ccc3cnc(NC(=O)CN4C5CCC4CC5)cc3c2)s1
experimentalSystem: recombinant DYRK1A kinase (Homo sapiens (Human))
readoutValue: 1.19

givenSmiles: CN1CCCN(CC(=O)Nc2cc3cc(-c4cnn(C)c4)ccc3cn2)CC1
experimentalSystem: recombinant DYRK1A kinase (Homo sapiens (Human))
readoutValue: 1.11

givenSmiles: [2H]c1nc(NC(=O)C2CCNCC2)cc2cc(-c3cnn(C)c3)ccc12
experimentalSystem: recombinant DYRK1A kinase (Homo sapiens (Human))
readoutValue: 0.38

givenSmiles: O=C(Nc1cc2cc(-c3cnc4n3CCNC4)ccc2cn1)C1CC1
experimentalSystem: recombinant DYRK1A kinase (Homo sapiens (Human))
readoutValue: 0.57

givenSmiles: CC(C)CN1CCC(F)(C(=O)Nc2cc3cc(-c4cnn5c4CN(CCF)CC5)ccc3cn2)CC1
experimentalSystem: recombinant DYRK1A kinase (Homo sapiens (Human))
readoutValue: 0.94

givenSmiles: Cc1nnc(-c2ccc3cnc(NC(=O)CN4CC5CCC(C4)O5)cc3c2)s1
experimentalSystem: recombinant DYRK1A kinase (Homo sapiens (Human))
readoutValue: 1.41

givenSmiles: Cc1nnc(-c2ccc3cnc(NC(=O)CN4CCN(C)CC4)cc3c2)s1
experimentalSystem: recombinant DYRK1A kinase (Homo sapiens (Human))
readoutValue: 1.36

givenSmiles: O=C(CN1C2CCC1CC2)Nc1cc2cc(-c3cnn4c3CN(CCF)CC4)ccc2cn1
experimentalSystem: recombinant DYRK1A kinase (Homo sapiens (Human))
readoutValue: 1.05

* * *

experimentalSystem: recombinant DYRK1A kinase (Homo sapiens (Human))
runDescription: DYRK1A kinase assay (Ser/Thr 18 peptide Z-lyte FRET);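 also: Read-out is the coumarin to fluorescein emission ratio, referenced to unphosphorylated (0%) and phosphorylated (100%) Ser/Thr 18 peptide controls, values from dose-response curves by non-linear regression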
runConditions: 30 μM ATP, 1 h room temperature

compound: Cn1cncc1-c1ccc2cnc(NC(=O)[C@H]3CCCO3)cc2c1 [Compound 537]
EC50: 8.9 nM

compound: Cn1cc(-c2cc3cc(NC(=O)C4CCNCC4)ncc3cc2Cl)cn1 [Compound 1013]
EC50: 17.1 nM

compound: [2H]C1([2H])CCC([2H])([2H])N1CC(=O)Nc1cc2cc(-c3cnn(C)c3)ccc2cn1 [Compound 315]
EC50: 12.3 nM

compound: O=C(Nc1cc2cc(-c3cncs3)ccc2cn1)C1(F)CCCCC1 [Compound 704]
EC50: 8.2 nM

compound: Cc1nnc(-c2ccc3cnc(NC(=O)C4CCN(CCC(F)(F)F)CC4)cc3c2)n1C [Compound 279]
EC50: 7.8 nM

compound: Cn1cc(-c2ccc3cnc(NC(=O)CN4CCCCC4)cc3c2)cn1 [Compound 115]
EC50: 3.4 nM

compound: Cn1cncc1-c1ccc2cnc(NC(=O)CN3CCCCC3)cc2c1 [Compound 275]
EC50: 4.7 nM

compound: Cn1ncc(-c2ccc3cnc(NC(=O)C4CCN(C(=O)c5ccccc5)CC4)cc3c2)c1CN1CCCCC1 [Compound 831]
EC50: 3.2 nM

compound: Cn1cc(-c2ccc3cnc(NC(=O)N4CN5CCC[C@@H]5C4=O)cc3c2)cn1 [Compound 362]
EC50: 132 nM

* * *

Tested on: secreted β-amyloid 40 (Aβ40) peptide
runDescription: Secreted β-amyloid 40 (Aβ40) peptide in APP overexpressing SH-SY5Y-APP cells
Format: cell-based
runConditions: Homo sapiens, overnight (16-18 hours)
endpoint: log10(IC50) (log10 of the value in µM)

compound: Cn1cc(-c2ccc3cnc(NC(=O)C4CCN(CC(F)F)CC4)cc3c2)cn1 [Compound 84]
readoutValue: 0.64
--
compound: Cn1cc(-c2ccc3cnc(NC(=O)C4CC4)cc3c2)cn1 [Compound 1]
readoutValue: 0.60
--
compound: Cn1cc(-c2ccc3cnc(NC(=O)C4CCNCC4)cc3c2)cn1 [Compound 72]
readoutValue: 0.32
--
compound: Cn1cncc1-c1ccc2cnc(NC(=O)C3CCC(F)(F)CC3)cc2c1 [Compound 263]
readoutValue: 0.72
--
compound: Cn1cc(-c2ccc3cnc(NC(=O)C4CCN(CCC(F)(F)F)CC4)cc3c2)cn1 [Compound 82]
readoutValue: 0.71
--
compound: Cn1cc(-c2ccc3cnc(NC(=O)C4CCN(CC(C)(C)C)CC4)cc3c2)cn1 [Compound 78]
readoutValue: -0.05
--
compound: Cn1cc(-c2ccc3cnc(NC(=O)[C@@H]4CCCNC4)cc3c2)cn1 [Compound 111]
readoutValue: -0.57
--
compound: Cn1cc(-c2ccc3cnc(NC(=O)CN4CCCCC4)cc3c2)cn1 [Compound 115]
readoutValue: -0.02

These entries and their values trace back to patent US10287267B2.
